- System: Wolbachia pipientis
- TEST_DETAILS: Anti-Wolbachia Cell-Based Screen
- Assay type: functional
- Design: scale not given: in the data most compounds retested in dose-response had high values
- CONDITION_DESCRIPTION: 5 µM
Among all 48,000 compounds or so, about 13,000 (27%) showed an effect of 50% or more. The list shows a part of the results.
METRIC: Percent Effect

Req: Consider the compound CN1CCCC2(CCN(Cc3cncn3C3CCCCC3)C2)C1=O (stereo unspecified) and give its measured Percent Effect.
Resp: -0.6007%

Req: Look up Percent Effect: CN(CCCn1cnc2c(N)ncnc21)Cc1ccccc1
Resp: 86.6%

----------
- Test system: Wolbachia pipientis
- TEST_DETAILS: Anti-Wolbachia Cell-Based Screen
- Type: functional
- Design: scale not given: in the data most compounds retested in dose-response had high values
- CONDITION_DESCRIPTION: 5 µM
Hit rate of the full screen: of about 48,000 compounds, about 13,000 (27%) showed an effect of 50% or more. This is one part of the list.
METRIC: Percent Effect
Please provide the amount together with its unit, number first.

Past entries and their recorded results:
COMPOUND: Cn1ccnc1CN1CCN(CC(=O)NCc2cccs2)CC1
Percent Effect: 99.27%

COMPOUND: Cn1cnc(S(=O)(=O)N2C[C@@H]3CC[C@H](C2)N(Cc2cscn2)C3=O)c1
Percent Effect: -55.67%

COMPOUND: CC(C(=O)NCc1cccs1)N1CCN(Cc2nccn2C)CC1 (centres undefined)
Percent Effect: 4.204%

Req: Give the measured Percent Effect of CC1=NOC(C(=O)N2CCC(O)(c3ccc4nc(C)ccc4c3)CC2)C1 (centres undefined) .
Resp: -15.54%

Req: I would be grateful if you could share the reported Percent Effect for CC(C)(CO)CCCNC(=O)NC1(c2ccccc2F)CC1 .
Resp: 114.3%

Req: Dear colleague, I am looking for the recorded Percent Effect of the following compound: Cc1noc(C)c1CN1CCc2nn(C(C)C)c(=O)cc2C1
Resp: -7.391%

Req: // Percent Effect lookup, key: CC1CN(CC(=O)Nc2cccnc2)CCN1c1nccs1 (centres undefined)
Resp: 0.898%

Req: I'd like to know its Percent Effect. The compound in question is CC1CN(CC(=O)Nc2nncs2)CCN1c1nccs1 (centres undefined)
Resp: -0.151%

Req: Would you mind telling me what Percent Effect value was observed for COCCC1(CNC(=O)NC2CCCN(C)C2)CC1 (centres undefined) ?
Resp: -18.26%

----------
- Test system: Wolbachia pipientis
- TEST_DETAILS: Anti-Wolbachia Cell-Based Screen
- Type: functional
- Parameters: scale not given: in the data most compounds retested in dose-response had high values
- CONDITION_DESCRIPTION: 5 µM
Among all 48,000 compounds or so, about 13,000 (27%) showed an effect of 50% or more. The list shows a part of the results.
METRIC: Percent Effect (%)
Please give a number only; it is taken to be in %.

Completed entries (count: 2):
COMPOUND: CCS(=O)(=O)N1CCC2(CCN(Cc3cccc(OC)c3)CC2)CC1.O=C(O)C(F)(F)F
MEASUREMENT_UNITS: %
Percent Effect: -27.27
--
COMPOUND: COc1ccc2c(c1)OC1(CCN(Cc3ccc(C)cc3)CC1)CC2=O
MEASUREMENT_UNITS: %
Percent Effect: 104.7

Req: Reported Percent Effect for O=C(Nc1cccnc1)C1Cc2nc(-c3ccsc3)sc2N1CC1CC1.O=C(O)C(F)(F)F (stereo unspecified) : what is it?
Resp: 52.78

Req: I have this compound here, Cc1noc(C2CCN(c3oc(C)nc3C#N)CC2)n1 , and I need its recorded Percent Effect.
Resp: -7.205

Req: I'd like to know its Percent Effect. The compound in question is CN(C)CCNC(=O)C1Cc2nc(-c3ccsc3)sc2N1CC1CC1.O=C(O)C(F)(F)F (stereo unspecified)
Resp: 106.6

Req: // Percent Effect lookup, key: COCCNC(=O)c1cc(C2CC2)nc2onc(C3CCNC3)c12 (stereo unspecified)
Resp: 98.56

Req: Any idea what Percent Effect was measured for CN(C)CC(=O)N1CCC2(CCc3cc(-c4cccnc4)ccc32)CC1.O=C(O)C(F)(F)F.O=C(O)C(F)(F)F ?
Resp: 1.059

Req: Data request, read-out Percent Effect, for COC(=O)c1ccccc1C(=O)N(CCN(C)C)Cc1sccc1C
Resp: -10.61

----------
- System: Wolbachia pipientis
- TEST_DETAILS: Anti-Wolbachia Cell-Based Screen
- Assay type: functional
- Design: scale not given: in the data most compounds retested in dose-response had high values
- CONDITION_DESCRIPTION: 5 µM
The campaign covered roughly 48,000 compounds. About 13,000 (27%) showed an effect of 50% or more. This is one part of the list.
METRIC: Percent Effect (%)
Give the number; % is assumed, so skip it.

A selection of reference data follows.
COMPOUND: COc1c(CNC2CCc3cc(Cl)ccc32)c(C)nn1C (stereo not drawn)
ASSAY_VALUE: 202
//
COMPOUND: COc1c(CNC2CCOc3ccccc32)c(C(C)C)nn1C (stereo not drawn)
ASSAY_VALUE: -0.8821

// next item, Percent Effect requested
Req: Percent Effect for COc1c(CNC2CCc3cc(F)ccc32)c(C(C)C)nn1C (stereo not drawn) ?
Resp: 97.63

----------
- Test system: Wolbachia pipientis
- TEST_DETAILS: Anti-Wolbachia Cell-Based Screen
- Assay type: functional
- Parameters: scale not given: in the data most compounds retested in dose-response had high values
- CONDITION_DESCRIPTION: 5 µM
Screen size: about 48,000 compounds; about 13,000 (27%) showed an effect of 50% or more. This is one part of the list.
METRIC: Percent Effect (%)
Supply the numeric figure in %, leaving out any unit text.

Use the examples below as a reference point.
MOLECULE: NCCN1C(=O)CC[C@H]2CN(Cc3ccc4occc4c3)CC[C@H]21
Percent Effect, %: -1.233
--
MOLECULE: CN1C(=O)C(c2ccccc2)CC12CCN(CCO)CC2.O=C(O)C(F)(F)F (stereo not given)
Percent Effect, %: 95.45
--
MOLECULE: CCSc1ccccc1C(=O)N1CC2(COC(C)(C)OC2)C1
Percent Effect, %: 0.7993

Req: Entry c1cnc(N2CCCC(c3n[nH]c4ncccc34)C2)nc1 (stereo not given) has what Percent Effect?
Resp: 152.2

Req: So what does the record say about Percent Effect for Cc1cc(N2CCCC(c3n[nH]c4ncccc34)C2)ncn1 (stereo not given) ?
Resp: 73.09

----------
- System: Wolbachia pipientis
- TEST_DETAILS: Anti-Wolbachia Cell-Based Screen
- Format: functional
- Parameters: scale not given: in the data most compounds retested in dose-response had high values
- CONDITION_DESCRIPTION: 5 µM
The campaign covered roughly 48,000 compounds. About 13,000 (27%) showed an effect of 50% or more. The list shows a part of the results.
Quick reference for Percent Effect among some molecules
Report as a plain number; the unit % is understood.

Below, 4 molecules whose answers are already recorded.
MOLECULE: O=C(Nc1cc(CSCCO)ccn1)c1ccc(Cl)o1
TESTED_ON: Wolbachia pipientis
Percent Effect (%): -51

MOLECULE: NC(=O)Cn1c(SCc2noc(-c3ccsc3)n2)nnc1C1CC1
TESTED_ON: Wolbachia pipientis
Percent Effect (%): 7.901

MOLECULE: Cn1cccc1C(=O)N1C[C@@H]2COC[C@]2(CNS(C)(=O)=O)C1
TESTED_ON: Wolbachia pipientis
Percent Effect (%): -3.959

MOLECULE: Cc1nc(O)c2nnn(C[C@H]3CCCN3C(=O)c3ccccc3F)c2n1
TESTED_ON: Wolbachia pipientis
Percent Effect (%): 81.62

Req: Requested field: Percent Effect. Item: Cc1nc(O)c2nnn(C[C@H]3CCCN3C(=O)c3cccs3)c2n1
Resp: 86.95

Req: Using the record for O=C1N(c2ccsc2)CCC12CCCN(c1ccccn1)C2 (centres undefined) , report its Percent Effect.
Resp: 116.3

Req: For O=C(CO)N1CCCC2(CCN(c3ccsc3)C2=O)C1 (centres undefined) , what is its reported Percent Effect?
Resp: -8.553

Req: Recorded Percent Effect of Cc1cnn(CC2CN(CCCc3nc4ccccc4o3)CCO2)c1 (centres undefined) , please.
Resp: 130.7

Req: Bench note: what Percent Effect did Cc1cnn(CC2CN(CCCS(=O)(=O)N(C)C)CCO2)c1 (centres undefined) show?
Resp: 6.483

----------
- Test system: Wolbachia pipientis
- TEST_DETAILS: Anti-Wolbachia Cell-Based Screen
- Format: functional
- Design: scale not given: in the data most compounds retested in dose-response had high values
- CONDITION_DESCRIPTION: 5 µM
The whole screen tested about 48,000 compounds, of which about 13,000 (27%) showed an effect of 50% or more. Some of the results follow.
METRIC: Percent Effect (%)
Kindly answer with a numeric value in %, unit omitted.

Req: Item CN(C)C[C@@H]1CN(Cc2ccccc2C#N)C[C@@H]1CO has what recorded Percent Effect?
Resp: 8.186
